Taken from paper PMC6150735.

Assay: Absorbance spectra of coumarin derivatives
Type: physicochemical
Conditions: 10 μM, 100 mM Tris–HCl pH 7.4, 10% dimethyl sulfoxide
readout-type: ε abs (M⁻¹ cm⁻¹)
Numbers only, in M⁻¹ cm⁻¹.

Cc1ccc(-c2cc3ccc(O)cc3oc2=O)cc1 [Compound 5, 7-Hydroxy-3-(p-tolyl)-2H-chromen-2-one] | 19500

Now for another entry.
### Prompt Please give the measured ε abs for this compound: O=c1oc2cc(O)ccc2cc1-c1ccc(O)cc1
### Response 20000
